tested-on: recombinant human PAD2 (human, UniProt Q9Y2J8 1-665)
Sequence (Q9Y2J8 whole entry): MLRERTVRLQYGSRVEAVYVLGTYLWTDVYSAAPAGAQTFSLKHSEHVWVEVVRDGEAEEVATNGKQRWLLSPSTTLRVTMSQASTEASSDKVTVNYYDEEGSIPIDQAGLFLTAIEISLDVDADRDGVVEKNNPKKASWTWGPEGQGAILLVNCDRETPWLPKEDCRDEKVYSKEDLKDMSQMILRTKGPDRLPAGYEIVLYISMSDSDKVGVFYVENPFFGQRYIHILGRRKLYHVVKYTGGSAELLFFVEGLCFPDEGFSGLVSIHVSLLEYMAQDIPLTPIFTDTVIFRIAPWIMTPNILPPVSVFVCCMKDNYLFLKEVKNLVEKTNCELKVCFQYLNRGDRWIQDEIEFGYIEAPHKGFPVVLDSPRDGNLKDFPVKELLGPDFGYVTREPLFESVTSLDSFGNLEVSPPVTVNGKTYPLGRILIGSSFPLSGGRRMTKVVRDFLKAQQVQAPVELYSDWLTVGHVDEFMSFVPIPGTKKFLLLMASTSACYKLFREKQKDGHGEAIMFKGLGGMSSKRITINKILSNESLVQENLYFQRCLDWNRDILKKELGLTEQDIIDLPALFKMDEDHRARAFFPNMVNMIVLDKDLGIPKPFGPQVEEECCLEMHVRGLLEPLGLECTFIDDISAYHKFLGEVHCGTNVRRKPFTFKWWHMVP
assay-procedure: cell-based or functional assay
Numbered stars: 1 amine (or outer) side, 2 acyl side, 3 side chain; on linkers, the order of the positions; unused ones are H or OH. Square brackets hold non-standard residues; d marks the D form. Ends that are not written are not given here. * marks the point of attachment. O(CA) = ornithine chloroamidine, N=C(CCl)NCCC[C@H](N[*:1])C(=O)[*:2]; Orn(fluoroacetimidoyl) = N=C(CF)NCCC[C@H](N)C(=O)O; Moc = COC(=O)*
I'd appreciate it if you could supply IC50 values (µM), colorimetric assay values for the items below.
Give your result in µM as a bare value.

For Ac-YD[O(CA)]GS [CXP5.2-081] , write its IC50 values (µM), colorimetric assay.
200

Fill in IC50 values (µM), colorimetric assay for record Ac-KFD[Orn(fluoroacetimidoyl)]DFI-NH2 (SMILES CC[C@H](C)[C@H](NC(=O)[C@H](Cc1ccccc1)NC(=O)[C@H](CC(=O)O)NC(=O)[C@H](CCCNC(=N)CF)NC(=O)[C@H](CC(=O)O)NC(=O)[C@H](Cc1ccccc1)NC(=O)[C@H](CCCCN)NC(C)=O)C(N)=O) [0743-58FA]
35

Read off the recorded IC50 values (µM), colorimetric assay for Moc-TD[Orn(fluoroacetimidoyl)]GS-OMe (SMILES COC(=O)N[C@H](C(=O)N[C@@H](CC(=O)O)C(=O)N[C@@H](CCCNC(=N)CF)C(=O)NCC(=O)N[C@@H](CO)C(=O)OC)[C@@H](C)O) [CXP5-101]
35
